target: UniProt:P21731; assay: Displacement of [3H]SQ29,548 from TPalpha receptor (short isoform) expressed in COS7 cells at 1 nM; conditions: COS-7
quantity name: Activity (%)

Solved cases (7 shown):
INSERT INTO measurements (smiles, quantity_unit, reported_result) VALUES
  ('CCCCCNC(=O)NS(=O)(=O)c1cc([N+](=O)[O-])ccc1Nc1ccc(C)cc1', '%', 39.6),
  ('CCCCCNC(=O)NS(=O)(=O)c1cc([N+](=O)[O-])ccc1Nc1c(C)cccc1C', '%', 36.5),
  ('CCCCCNC(=O)NS(=O)(=O)c1cc([N+](=O)[O-])ccc1Nc1cccc(C)c1C', '%', 44.6),
  ('CCCCCCNC(=O)NS(=O)(=O)c1cc([N+](=O)[O-])ccc1NC1CCCCC1', '%', 44.2),
  ('CC(C)(C)NC(=O)NS(=O)(=O)c1cc([N+](=O)[O-])ccc1Sc1ccc(Cl)cc1', '%', 32.5),
  ('CCCCCNC(=O)NS(=O)(=O)c1cc([N+](=O)[O-])ccc1Nc1c(C)cc(C)cc1C', '%', 27.9),
  ('CCCCCNC(=O)NS(=O)(=O)c1cc([N+](=O)[O-])ccc1Nc1cccc(C)c1', '%', 48.5);

a. CCCCCNC(=O)NS(=O)(=O)c1cc([N+](=O)[O-])ccc1Nc1cc(C)ccc1C
b. CCCCCCNC(=O)NS(=O)(=O)c1cc([N+](=O)[O-])ccc1Oc1ccc(C)cc1
Lab note: check whether a or b has the lower measured Activity. Identify your selection by its label.
a

* * *

target: Thromboxane A2 receptor (Homo sapiens) (UniProt P21731); assay: Displacement of [3H]SQ29,548 from TPalpha receptor (short isoform) expressed in COS7 cells at 1 nM; details: COS-7
Sequence (P21731 whole entry, canonical isoform): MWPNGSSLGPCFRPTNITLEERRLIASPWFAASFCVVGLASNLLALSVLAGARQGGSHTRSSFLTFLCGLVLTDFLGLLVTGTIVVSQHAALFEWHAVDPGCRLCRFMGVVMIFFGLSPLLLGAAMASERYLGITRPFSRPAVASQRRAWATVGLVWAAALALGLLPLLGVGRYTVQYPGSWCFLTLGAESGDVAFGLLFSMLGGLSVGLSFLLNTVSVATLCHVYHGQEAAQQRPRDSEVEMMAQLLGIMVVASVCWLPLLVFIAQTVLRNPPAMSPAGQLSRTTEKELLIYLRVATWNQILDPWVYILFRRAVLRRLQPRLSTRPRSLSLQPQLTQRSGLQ
quantity name: Activity (%)

INSERT INTO measurements (smiles, quantity_unit, reported_result) VALUES
  ('CCCCCNC(=O)NS(=O)(=O)c1cc([N+](=O)[O-])ccc1Nc1ccc(Br)c(C)c1', '%', 32.1),
  ('CCCCCNC(=O)NS(=O)(=O)c1cc([N+](=O)[O-])ccc1Sc1ccc(Cl)cc1', '%', 24.7),
  ('CCCCC/N=C(\NC#N)NS(=O)(=O)c1cc([N+](=O)[O-])ccc1Nc1ccc(C)cc1', '%', 25.5);

a. CCCCCNC(=O)NS(=O)(=O)c1cc([N+](=O)[O-])ccc1Oc1ccccc1C
b. CCCCCCCCNC(=O)NS(=O)(=O)c1cc([N+](=O)[O-])ccc1NC1CCCCC1
Lab note: check whether a or b has the lower measured Activity. Identify your selection by its label.
b

* * *

target: Thromboxane A2 receptor (Homo sapiens, UniProt P21731); assay: Activity at TPbeta (long isoform) receptor expressed in HEK293 cells assessed as ability to antagonize U46619-mediated calcium ion mobilization; type: functional, cell-based
Sequence (P21731 whole entry, canonical isoform): as above
pIC50: −log10 of the molar value.
quantity name: pIC50

INSERT INTO measurements (smiles, measured_target, quantity_name, reported_result) VALUES
  ('CCCCCNC(=O)NS(=O)(=O)c1cc([N+](=O)[O-])ccc1Nc1ccc(Br)c(C)c1', 'Thromboxane A2 receptor (Homo sapiens, UniProt P21731)', 'pIC50', 7.36),
  ('CCCCNC(=O)NS(=O)(=O)c1cc([N+](=O)[O-])ccc1Oc1ccc(C)cc1', 'Thromboxane A2 receptor (Homo sapiens, UniProt P21731)', 'pIC50', 7.28),
  ('Cc1cccc(C)c1Nc1ccc([N+](=O)[O-])cc1S(=O)(=O)NC(=O)NC(C)(C)C', 'Thromboxane A2 receptor (Homo sapiens, UniProt P21731)', 'pIC50', 7.51);

P. CCCCCNC(=O)NS(=O)(=O)c1cc([N+](=O)[O-])ccc1Nc1cccc(C)c1
Q. CCCCCNC(=O)NS(=O)(=O)c1cc([N+](=O)[O-])ccc1Nc1ccc(C)cc1
Rank P against Q by their pIC50 values and give the higher one. Identify your selection by its label.
Q
(Q: 7.87, P: 7.34)

1. Cc1ccc(Nc2ccc([N+](=O)[O-])cc2S(=O)(=O)NC(=O)N2CCCCC2)cc1
2. Cc1ccc(Oc2ccc([N+](=O)[O-])cc2S(=O)(=O)NC(=O)NC2CCCCC2)cc1
Lab note: check whether 1 or 2 has the lower measured pIC50. Identify your selection by its label.
2
(2: 7.15, 1: 7.41)
